Source of measurements: ChEMBL document CHEMBL1949580

Tested on: HeLa
Test: Cytotoxicity against human HeLa cells after 48 hrs by MTT assay
Type: functional, cell-based
Please respond with reported IC50 for every item in the list.
Give bare numbers, in µg/mL.

A selection of reference data follows.
- Cc1noc2c(C(c3ccc(Cl)cc3)c3c(-c4ccccc4)c[n+]([O-])c4c(C)noc34)c(-c3ccccc3)c[n+]([O-])c12: 70.7
- Cc1ccccc1C(c1c(-c2ccccc2)c[n+]([O-])c2c(C)noc12)c1c(-c2ccccc2)c[n+]([O-])c2c(C)noc12: 62.4
- COc1ccc(-c2c[n+]([O-])c3c(C)noc3c2C(c2ccccc2)c2c(-c3ccc(OC)cc3)c[n+]([O-])c3c(C)noc23)cc1: 47.9
- Cc1noc2c(C(c3ccccc3Cl)c3c(-c4ccccc4)c[n+]([O-])c4c(C)noc34)c(-c3ccccc3)c[n+]([O-])c12: 79
- Cc1noc2c(C(c3ccccc3)c3c(-c4ccc(Cl)cc4)c[n+]([O-])c4c(C)noc34)c(-c3ccc(Cl)cc3)c[n+]([O-])c12: 70.2
- COc1ccccc1C(c1c(-c2ccccc2)c[n+]([O-])c2c(C)noc12)c1c(-c2ccccc2)c[n+]([O-])c2c(C)noc12: 65.5
- Cc1noc2c(C(c3ccccc3)c3c(-c4ccc([N+](=O)[O-])cc4)c[n+]([O-])c4c(C)noc34)c(-c3ccc([N+](=O)[O-])cc3)c[n+]([O-])c12: 80
- Cc1noc2c(C(c3ccccc3)c3c(-c4ccccc4O)c[n+]([O-])c4c(C)noc34)c(-c3ccccc3O)c[n+]([O-])c12: 32.8
- Cc1noc2c(C(c3ccccc3)c3c(-c4ccccc4)c[n+]([O-])c4c(C)noc34)c(-c3ccccc3)c[n+]([O-])c12: 28.6

# get_value(readout='IC50', item= `Cc1ccc(-c2c[n+]([O-])c3c(C)noc3c2C(c2ccccc2)c2c(-c3ccc(C)cc3)c[n+]([O-])c3c(C)noc23)cc1` )
42
